protocol_text: chemical genetic growth profiling, strain panel (AID 1159580);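 note: tested at 20 µM; growth read once vehicle control cultures reached saturation at 30 °C; 1 = growth at the plate median or of vehicle wells; lower values mean less growth of the strain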
measurement_setup: S. cerevisiae deletion strains, growth OD, locus YLL041C, strain sdh2, active compounds read low
Hit rate of the full screen: of about 5,500 compounds, about 2,000 (36%) were called active. About 18% were inconclusive and are not listed. The list shows a part of the results.
Could you please report measured normalized growth for the items listed next?
// return just the number, without any unit appended

Look up normalized growth for this compound: `COc1cc([C@H]2Oc3cc([C@H]4Oc5cc(O)cc(O)c5C(=O)[C@@H]4O)ccc3O[C@@H]2CO)ccc1O`
1.01

// query normalized growth value for entry `C[C@@H](N)[C@@H](O)c1ccccc1`
1.01

Field request: normalized growth | item: `CN(C)N=Nc1nc[nH]c1C(N)=O`
0.987

Field request: normalized growth | item: `N#C/C(=C\c1cccc(O)c1)C(=O)O`
0.984

Entry `C[C@H](N)[C@H](O)c1cccc(O)c1` has what normalized growth?
1.01

Which measured normalized growth value corresponds to `COc1ccc(C(=O)CC(=O)c2ccc(C(C)(C)C)cc2)cc1` ?
0.972

# get_value(readout='normalized growth', item= `c1ccc2c(c1)CN1CCCC1=N2` )
0.996

Form field: reported normalized growth of NC(Cc1ccc(F)cc1)C(=O)O (stereo not given)
1.01

What measured normalized growth goes with CC1CCC2(OC1)OC1CC3C4CCC5C[C@@H](O)CCC5(C)C4=CCC3(C)C1[C@@H]2C (stereo not given in full) ?
0.992

I have this compound here, CC(CN1c2ccccc2Sc2ccccc21)N(C)C (stereo not given) , and I need its recorded normalized growth.
0.982

Given `N[C@H](Cc1ccccc1)C(=O)O` , state its recorded normalized growth.
1

Data request, read-out normalized growth, for `NNCCc1ccccc1`
1

Look up normalized growth for this compound: `Nc1ccncc1`
0.989

Any idea what normalized growth was measured for `CCN(CCCc1ccccc1)CCCc1ccccc1` ?
0.989

# normalized growth lookup, item C[C@]12C=CC(=O)C=C1CCC1C3C[C@@H](O)[C@](O)(C(=O)CO)[C@@]3(C)C[C@H](O)[C@@]12F (stereo not given in full)
0.985

Which normalized growth is reported for this compound? `Cc1cc(O)c(C=O)c2c1C(=O)Oc1c(COC(=O)/C=C/C(=O)O)c(O)c(C(=O)O)c(C)c1O2`
1

# lookup: normalized growth of `CNCCCN1c2ccccc2CCc2ccccc21`
1.01

normalized growth lookup needed for `CN(C(=O)CN(CCO)CC(=O)N(C)C(C)(C)Cc1ccccc1)C(C)(C)Cc1ccccc1` , thanks.
1.01

Would you mind telling me what normalized growth value was observed for `O=[N+]([O-])c1cccc2cn[nH]c12` ?
0.985

Can you share its normalized growth? I mean this compound: C[C@@H]1CC2C3C[C@H](F)C4=CC(=O)C=C[C@]4(C)[C@@]3(F)[C@@H](O)C[C@]2(C)[C@@]1(O)C(=O)COC(=O)C(C)(C)C (stereo not given in full)
1.01

* * *

protocol_text: chemical genetic growth profiling, strain panel (AID 1159580);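 note: tested at 20 µM; growth read once vehicle control cultures reached saturation at 30 °C; 1 = growth at the plate median or of vehicle wells; lower values mean less growth of the strain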
measurement_setup: S. cerevisiae deletion strains, growth OD, locus YJL168C, strain set2, active compounds read low
Out of some 5,500 compounds screened, about 2,000 (36%) were called active. Another 18% or so got no clear call; they are omitted. The list shows a part of the results.
Provide the reported normalized growth of each item.
// return just the number, without any unit appended

Value lookup for normalized growth; key = CN(C)CCC(c1ccc(Br)cc1)c1ccccn1 (centres undefined)
0.993

# lookup: normalized growth of `O=c1cc(-c2ccccc2)oc2cc(O)cc(O)c12`
0.948

Given the molecule `COC(=O)c1c(C)cc(OC(=O)c2c(C)cc(O)c(C=O)c2O)c(C)c1O` , what is its reported normalized growth?
1.01

// normalized growth lookup, key: C=C1C2=CC(=O)O[C@@H](c3ccoc3)[C@]2(C)CCC1[C@@]1(C)C=CC(=O)C(C)(C)[C@@H]1CC(=O)OC (some centres undefined)
1

Need normalized growth, item CC(CCC(=O)O)[C@H]1CCC2C3CC[C@@H]4C[C@H](O)CC[C@]4(C)C3C[C@H](O)[C@@]21C (some centres undefined)
0.98

Fill in: normalized growth of C=C1C(C2(C)C=CC(=O)C(C)(C)C2CC(=O)OC)CC[C@@]2(C)[C@H](c3ccoc3)OC(=O)C3OC132 (some centres undefined) is ___
0.994

Report normalized growth for `COc1ccc(C(=O)N2CCCC2=O)cc1` please.
0.992

What measured normalized growth goes with `Cc1nc2sccn2c(=O)c1CCN1CCC(=C(c2ccc(F)cc2)c2ccc(F)cc2)CC1` ?
0.998

Dear colleague, I am looking for the recorded normalized growth of the following molecule: `CC12CC3CC(C)(C1)CC(N)(C3)C2`
1

* * *

protocol_text: chemical genetic growth profiling, strain panel (AID 1159580);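 note: tested at 20 µM; growth read once vehicle control cultures reached saturation at 30 °C; 1 = growth at the plate median or of vehicle wells; lower values mean less growth of the strain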
measurement_setup: S. cerevisiae deletion strains, growth OD, locus YNL153C, strain GIM3
In all, about 5,500 compounds went through this assay and about 2,000 (36%) were called active. Inconclusive results (about 18%) are left out. Rule as the data show it: active = normalized growth mostly below about 0.91 (no sharp cut-off); inconclusive = no clear call, values can overlap the other calls; inactive = mostly above about 0.92. The list shows a part of the results. Where a SMILES comes first, the peptide text is derived from it.
The categories you may choose from are active, inactive

Which result was noted for this compound in the test: `Cc1ccc2cc(NC(=O)c3ccco3)ccc2n1`
inactive

Each compound tested received a call. Report the one for `O=c1cc(-c2ccccc2)oc2cc(O)cc(O)c12` .
inactive

Fill in: this test's call for `COC(=O)COc1ccc(C(C)=O)cc1` is ___
inactive

Tell me the recorded outcome of this test for Cc1cc(O)c(C=O)c2c1C(=O)Oc1c(C)c(O)c3c(c1O2)C(O)OC3=O (stereo not drawn) .
inactive

Give the logged outcome of this assay for the following compound: `N[C@@H](Cc1ccc(O)c(I)c1)C(=O)O`
inactive

// return assay outcome for Nc1ccn(C2O[C@H](CO)[C@@H](O)[C@H]2O)c(=O)n1 (stereo partly drawn)
inactive

What is the recorded call for this compound in the test? `Cc1nc2n(c(=O)c1CCN1CCC(c3noc4cc(F)ccc34)CC1)CCCC2`
inactive

Status in this test for CC[C@H](CCC(C)[C@H]1CCC2C3CCC4C[C@@H](O)CC[C@]4(C)C3CC[C@@]21C)C(C)C (stereo partly drawn) ?
inactive

Test call, this compound: `N#Cc1cc2nc(O)c(O)nc2cc1[N+](=O)[O-]`
inactive

Query: recorded result category for `COc1cc(C)c(C(=O)Oc2cc(C)c(C(=O)O)c(O)c2C)c(OC)c1C` in this test
inactive

Per the records of this test, what outcome belongs to CN(C)CCOC(=O)C(c1ccccc1)C1(O)CCCC1 (stereo not drawn) ?
inactive

Just curious, what result did `CNCCCN1c2ccccc2CCc2ccccc21` get here?
inactive

Answer briefly: the call reported for `O=C(O)Cc1ccccc1I` in this assay.
inactive

# fetch the recorded call for `NNC(=O)c1ccccc1O` here
inactive

Could you kindly confirm the outcome this assay logged for `Cn1nccc1NS(=O)(=O)c1cccc(Cl)c1` ?
inactive

Could you check what this test reported for `O=C(O)Cc1cc(I)c(Oc2cc(I)c(O)c(I)c2)c(I)c1` ?
inactive

So what was the verdict on `O=C(Nc1ccccc1)NC1CCCC1` in this test?
inactive

Outcome? `O=c1c2cc(NS(=O)(=O)c3ccc(Cl)cc3)ccc2oc2ncccc12`
inactive

State the result this test recorded for `C[C@H](N)CN1CCc2ccc(Br)cc21` .
inactive

Hey, what did the test say about NCCCCC(N)C(=O)NC(Cc1ccc(O)cc1)C(=O)NC(CCCCN)C(=O)O (stereo not drawn) (H-Lys-Tyr-Lys-OH; configuration not given here) ?
inactive

// outcome(item) with item = `COc1ccc(CNc2ccccc2-c2nc3ccccc3[nH]2)cc1`
inactive

Recorded test call requested for `O=C(O)CCOc1ccc(Cl)cc1`
active

What did the test return for `C/C(=N/Nc1c(Cl)cc(Cl)cc1Cl)c1cc(F)ccc1OC(=O)c1ccccc1F` ?
inactive

* * *

Exercise: state measured normalized growth for each of the compounds provided.
protocol_text: chemical genetic growth profiling, strain panel (AID 1159580);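 note: tested at 20 µM; growth read once vehicle control cultures reached saturation at 30 °C; 1 = growth at the plate median or of vehicle wells; lower values mean less growth of the strain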
measurement_setup: S. cerevisiae deletion strains, growth OD, locus YKL160W, strain elf1, active compounds read low
The whole screen tested about 5,500 compounds, of which about 2,000 (36%) were called active. Not shown: some 18% with an inconclusive outcome. The list shows a part of the results.
Lab note: jot the number down without any unit.

Which normalized growth value is on record for Nc1ccn(C2O[C@H](CO)[C@@H](O)[C@H]2O)c(=O)n1 (some centres not stated) ?
0.994

Which normalized growth is listed for `O=c1cc(-c2ccc(O)cc2)oc2cc(O)ccc12` ?
0.973

# query: normalized growth of entry `CC(=O)Nc1ccccc1`
0.985

Look at this compound and give its reported normalized growth. `Cc1cc(=O)oc2c(O)c(O)ccc12`
0.992

Reported normalized growth, compound `C=C1[C@H]2CC[C@@]3(C)[C@H](c4ccoc4)OC(=O)C[C@]13O[C@H]1C[C@H](O)C(C)(C)[C@H](CC(=O)OC)[C@]12C` : ____
0.998

# normalized growth lookup, item C=C1C2CC[C@@]3(C)[C@H](c4ccoc4)OC(=O)C[C@]13O[C@H]1CC(O)C(C)(C)C(CC(=O)OC)[C@@]21C (some centres not stated)
0.984

Consider the compound CCCCCC1C(=O)CCC1CC(=O)OC (configuration not stated) and give its measured normalized growth.
0.988
